Just for reference, patent US20090197330A1 is where these values come from.

Target: T1, human CD20 antigen (human, UniProt P11836 1-297)
T1 construct: whole, on cells; also called CD20/CHO cells; CD20 on Raji cells
T1 sequence (looked up): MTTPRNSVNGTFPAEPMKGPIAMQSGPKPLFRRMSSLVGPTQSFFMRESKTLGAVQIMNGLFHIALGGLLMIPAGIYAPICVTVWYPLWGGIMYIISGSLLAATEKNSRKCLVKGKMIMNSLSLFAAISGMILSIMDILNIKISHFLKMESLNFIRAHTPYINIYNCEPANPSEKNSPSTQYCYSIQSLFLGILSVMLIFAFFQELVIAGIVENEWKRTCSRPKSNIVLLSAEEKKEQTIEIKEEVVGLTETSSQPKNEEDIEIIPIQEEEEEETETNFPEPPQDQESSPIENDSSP
Experiment: CD20/CHO cell-ELISA, antibody at 10 ng/ml

Binder	Unit Abbreviation	A492
chimeric anti-CD20 monoclonal antibody c1K1422 (antibody, V domains shown, Murine variable regions fused to human immunoglobulin H chain and L chain (kappa) constant regions of vector pNOW-Ab) VH: QVQLQQPGAELVKPGASVKMSCRASGYTFTNYNMHWIKQTPGQGLEWIGAIYPGSGDTSYNRKFKGKATLTADTSSSTAYMQFSSLTSADSAVYYCARFTYYYGGTYGAMDYWGQGTSVTVSL VL: QIVLTQSPPIMSASLGEEITLTCSASSRVSYMLWYQQKSGTSPKLLIYSTSNLASGVPSRFSGSGSGTFYSLTISSVEAEDAADYYCHQWTSNPCTFGGGTKLEIK	A492	0.357
chimeric anti-CD20 monoclonal antibody c1K1228 (antibody, V domains shown, Murine variable regions fused to human immunoglobulin H chain and L chain (kappa) constant regions of vector pNOW-Ab) VH: QVQLQQPGAELVKPGASVKVSCKASGFTFTSYNLHWVKQTPGQGLVWIGAIYPGNGDTSYNQKFRGKATLTADISSSTAYMQLSSLTSEDSAVYYCARYYYGYDAMDYWGQGTSVTVSS VL: EIILTQSPTTMAASPGEKITITCSASSSISSYYLRWYQQKPGFSPKVLIYRTSNLASGVPARFSGSGSGTSYSLTIGTMEAEDVATYYCQQGNTVPLTFGSGTKLEIK	A492	0.701
Rituximab (c2B8) (antibody, V domains shown) VH: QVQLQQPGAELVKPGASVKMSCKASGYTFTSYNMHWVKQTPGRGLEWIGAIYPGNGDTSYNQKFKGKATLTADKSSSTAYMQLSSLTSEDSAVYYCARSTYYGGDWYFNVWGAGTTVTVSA VL: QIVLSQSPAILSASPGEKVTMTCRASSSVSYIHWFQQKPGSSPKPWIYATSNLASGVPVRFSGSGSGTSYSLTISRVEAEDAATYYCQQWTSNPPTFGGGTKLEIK	A492	0.536
chimeric anti-CD20 monoclonal antibody c1K1791 (antibody, V domains shown, Murine variable regions fused to human immunoglobulin H chain and L chain (kappa) constant regions of vector pNOW-Ab) VH: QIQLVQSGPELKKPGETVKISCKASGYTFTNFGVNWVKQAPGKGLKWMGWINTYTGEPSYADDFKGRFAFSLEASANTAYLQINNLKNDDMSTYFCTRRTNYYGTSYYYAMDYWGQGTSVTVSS VL: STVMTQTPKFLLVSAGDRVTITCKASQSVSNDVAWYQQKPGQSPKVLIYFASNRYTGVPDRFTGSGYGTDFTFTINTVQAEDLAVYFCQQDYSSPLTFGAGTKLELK	A492	0.745
